Target: M1 muscarinic receptor (Homo sapiens)
Construct: expressed in transfected cells; host or cells: CHO (M1-CHO)
Sequence (P11229 1-460): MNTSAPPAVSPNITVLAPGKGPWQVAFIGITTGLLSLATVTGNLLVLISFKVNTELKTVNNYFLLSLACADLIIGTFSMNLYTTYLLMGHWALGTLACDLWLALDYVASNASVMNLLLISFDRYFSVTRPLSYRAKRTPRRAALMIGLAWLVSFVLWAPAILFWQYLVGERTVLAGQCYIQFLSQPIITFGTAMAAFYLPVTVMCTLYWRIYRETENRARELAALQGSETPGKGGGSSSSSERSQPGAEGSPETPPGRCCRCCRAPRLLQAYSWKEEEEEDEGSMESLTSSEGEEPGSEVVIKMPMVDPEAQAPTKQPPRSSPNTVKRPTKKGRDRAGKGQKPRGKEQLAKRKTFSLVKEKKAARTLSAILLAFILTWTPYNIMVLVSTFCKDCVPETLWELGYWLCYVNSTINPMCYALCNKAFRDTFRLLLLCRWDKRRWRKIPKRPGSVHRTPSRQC
Assay: Functional mobilization of intracellular calcium (FLIPR) in M1-CHO cells
Type: cell-based
Settings: M1 receptor, calcium mobilization; read-out: M1 Efficacy
property.name: Emax

Guide cases for Emax, answers given:
compound: CCCOC(=O)N1CC2(CCN(C3CCN(C(=O)OCC)CC3)CC2)c2cc(F)ccc21
property.name: Emax
value.reported: 65 to 85%
//
compound: CCOC(=O)N1CCC(N2CCC3(CC2)CN(C(C)=O)c2ccc(-c4ccc(S(C)(=O)=O)cc4)cc23)CC1
property.name: Emax
value.reported: 65 to 85%
//
compound: C#CCCOC(=O)N1CCC(N2CCC3(CC2)CN(C(=O)N(C)C)c2ccc(F)cc23)CC1
property.name: Emax
value.reported: 65 to 85%
//
compound: CC(=O)N[C@H]1CC2(CCN([C@H]3C[C@@H]4CC[C@@H]3C4)CC2)c2ccccc21
property.name: Emax
value.reported: 65 to 85%

Given CCOC(=O)N1C2CCC1CC(N1CCC3(CC1)CN(C(=O)c1snnc1C)c1ccc(F)cc13)C2 (stereo not shown) , respond with its Emax.
< 65%

Write down Emax measured for item Cc1ccc2c(c1)C1(CCN(CC3CC4CCC3O4)CC1)CN2 (stereo not shown)
65 to 85%

---

Biological target: M4 muscarinic receptor (Homo sapiens)
Construct: expressed in transfected cells; host or cells: CHO (M4-CHO)
Sequence (P08173 1-479): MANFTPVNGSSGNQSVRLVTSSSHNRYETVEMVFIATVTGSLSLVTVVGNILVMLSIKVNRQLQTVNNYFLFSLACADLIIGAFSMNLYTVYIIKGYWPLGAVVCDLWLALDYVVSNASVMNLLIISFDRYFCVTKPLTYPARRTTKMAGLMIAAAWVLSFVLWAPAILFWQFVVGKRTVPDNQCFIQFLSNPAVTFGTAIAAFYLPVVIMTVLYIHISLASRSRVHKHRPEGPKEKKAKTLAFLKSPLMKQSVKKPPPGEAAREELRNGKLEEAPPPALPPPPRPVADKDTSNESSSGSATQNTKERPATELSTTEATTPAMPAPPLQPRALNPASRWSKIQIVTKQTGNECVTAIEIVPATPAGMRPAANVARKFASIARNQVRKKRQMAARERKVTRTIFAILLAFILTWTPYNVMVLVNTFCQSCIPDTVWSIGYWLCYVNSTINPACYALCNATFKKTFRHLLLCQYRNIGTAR
Experiment: Functional mobilization of intracellular calcium (FLIPR) in M4-CHO cells
Assay type: cell-based
Conditions: M4 receptor, calcium mobilization; read-out: M4 Efficacy
property.name: Emax

Recorded results for 10 molecules are shown here.
molecule: CCOC(=O)N1C2CCC1CC(N1CCC3(CC1)CN(C(=O)c1ccno1)c1ccc(F)cc13)C2 (stereo not shown) [compound 88]
value.reported: < 65%
--
molecule: CC(=O)N1CC2(CCN(C3CCN(C(=O)OC4CCC4)CC3)CC2)c2cc(C)ccc21 [compound 151]
value.reported: > 85%
--
molecule: CCOC(=O)N1C2CCC1CC(N1CCC3(CC1)CC(NC(C)=O)c1ccccc13)C2 (stereo not shown) [compound 318]
value.reported: > 85%
--
molecule: O=C(OC1CCC1)N1C2CCC1CC(N1CCC3(CC1)COc1ccc(F)cc13)C2 (stereo not shown) [compound 123]
value.reported: < 65%
--
molecule: CS(=O)(=O)N[C@H]1CC2(CCN(C[C@H]3C[C@H]4C=C[C@H]3C4)CC2)c2ccccc21 [compound 70]
value.reported: 65 to 85%
--
molecule: CCOC(=O)N1CCC(N2CCC3(CC2)CN(C(C)=O)c2ccc(-c4cccc(C#N)c4)cc23)CC1 [compound 373]
value.reported: > 85%
--
molecule: CCOC(=O)N1C2CCC1CC(N1CCC3(CC1)c1ccccc1C(=O)C3(C)C)C2 (stereo not shown) [compound 278]
value.reported: 65 to 85%
--
molecule: CC(=O)N1CC2(CCN(C3CCCCCCC3)CC2)c2cc(F)ccc21 [compound 248]
value.reported: < 65%
--
molecule: C#CCOC(=O)N1CCC(CN2CCC3(CC2)CN(C(C)=O)c2ccc(F)cc23)CC1 [compound 316]
value.reported: < 65%
--
molecule: CCOC(=O)N1C2CCC1CC(N1CCC3(CC1)CN(C(=O)OCCOC)c1ccc(F)cc13)C2 (stereo not shown) [compound 90]
value.reported: < 65%

Indicate its recorded Emax; the molecule in question is CCOC(=O)N1CCC(N2CCC3(CC2)CN(C(C)=O)c2ccc(OC(F)(F)F)cc23)CC1 [compound 225]
< 65%

Tell us which Emax value is on record for CCON=C1CCC(N2CCC3(CC2)CN(C(C)=O)c2ccc(F)cc23)CC1 (stereo not shown) [compound 86]
< 65%

Provide one value: measured Emax of Cc1cc(C(=O)N2CC3(CCN(C4CC5CCC(C4)N5C(=O)O[C@@H]4CCOC4)CC3)c3cc(F)ccc32)nn1C (stereo partly shown) [compound 233]
> 85%

---

Target: M1 muscarinic receptor (Homo sapiens)
Construct: expressed in transfected cells; host or cells: CHO (M1-CHO)
Sequence (P11229 1-460): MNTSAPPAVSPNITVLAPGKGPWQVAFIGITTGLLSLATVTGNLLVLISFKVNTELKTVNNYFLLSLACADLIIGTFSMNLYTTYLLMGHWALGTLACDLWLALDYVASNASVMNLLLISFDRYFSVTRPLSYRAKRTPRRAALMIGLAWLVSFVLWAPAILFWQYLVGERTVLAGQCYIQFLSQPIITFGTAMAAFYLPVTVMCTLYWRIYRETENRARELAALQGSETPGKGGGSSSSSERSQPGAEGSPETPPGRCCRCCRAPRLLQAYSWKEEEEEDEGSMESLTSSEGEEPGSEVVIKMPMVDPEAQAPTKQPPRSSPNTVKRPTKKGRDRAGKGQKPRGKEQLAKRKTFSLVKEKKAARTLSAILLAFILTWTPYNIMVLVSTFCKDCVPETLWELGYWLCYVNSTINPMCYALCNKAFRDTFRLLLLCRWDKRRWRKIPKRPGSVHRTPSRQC
Assay: Functional mobilization of intracellular calcium (FLIPR) in M1-CHO cells
Assay type: cell-based
Conditions: M1 receptor, calcium mobilization; read-out: M1 Efficacy
property.name: Emax

These solved cases illustrate the format of a correct answer.
molecule: C#CCOC(=O)N1CCC(CN2CCC3(CC2)C[C@H](NC(C)=O)c2ccccc23)CC1
property.name: Emax
value.reported: > 85%
//
molecule: CCOC(=O)N1CCC(CN2CCC3(CC2)CN(C(C)=O)c2ccc(OC(F)(F)F)cc23)CC1
property.name: Emax
value.reported: < 65%

Attention now turns to another entry.
Fill: Emax (M1 muscarinic receptor (Homo sapiens)) for this molecule `Cc1ccc2c(c1)C1(CCN([C@@H]3C[C@@H]4CC[C@@H]3C4)CC1)CN2`
< 65%

---

Target: M4 muscarinic receptor (Homo sapiens, UniProt P08173)
Construct: expressed in transfected cells; host or cells: CHO (M4-CHO)
Sequence (P08173 1-479): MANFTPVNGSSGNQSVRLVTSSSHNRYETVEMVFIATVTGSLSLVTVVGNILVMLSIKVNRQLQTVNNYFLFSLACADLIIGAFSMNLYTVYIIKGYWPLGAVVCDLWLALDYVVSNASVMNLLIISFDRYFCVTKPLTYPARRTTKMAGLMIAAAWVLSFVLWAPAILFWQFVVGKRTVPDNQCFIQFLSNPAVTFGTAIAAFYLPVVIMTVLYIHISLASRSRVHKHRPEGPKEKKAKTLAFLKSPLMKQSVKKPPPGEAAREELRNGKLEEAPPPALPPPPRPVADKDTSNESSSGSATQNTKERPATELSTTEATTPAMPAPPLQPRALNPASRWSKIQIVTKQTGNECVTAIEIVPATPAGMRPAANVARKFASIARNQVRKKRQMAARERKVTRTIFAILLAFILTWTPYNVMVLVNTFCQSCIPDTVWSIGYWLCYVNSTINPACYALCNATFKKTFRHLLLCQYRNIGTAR
Assay: Functional mobilization of intracellular calcium (FLIPR) in M4-CHO cells
Type: cell-based
Details: Table 4; 100% efficacy is the maximum response obtained with the Carbachol control
Procedure: Functional Mobilization of Intracellular Calcium to Determine Muscarinic Receptor Activity: […] Compounds are prepared at a 2× fold concentration in a 96-well plate (round bottom, Costar Corning cat# 3656), by reconstituting the pre-spotted compounds in bath 1 containing 1 mM probenecid. […] In both assay modes, the fluorescence is recorded for 60 sec (excitation wavelength is […] and emission wavelength 540 nm) using the FLIPR 3 instrument. […]
Each entry below carries its recorded Emax.

Some solved cases for reference:
molecule: CCC#CCOC(=O)N1CC[C@@H](CN2CCC3(CC2)CN(C(C)=O)c2cccc(C)c23)C1
Emax: 25 to 100%
//
molecule: CN(C)C(=O)N1CC2(CCN(C3CCN(C(=O)[C@@H]4CCCO4)CC3)CC2)c2cc(F)ccc21
Emax: < 25%
//
molecule: CCOC(=O)N1CCC(N2CCC3(CC2)CN(C(C)=O)c2c(-c4ccc(F)cc4)cccc23)CC1
Emax: 25 to 100%

Now look at this entry.
Output reported Emax of the compound `CCOC(=O)N1CCC(N2CCC3(CC2)CN(C(C)=O)c2c(F)ccc(F)c23)CC1` on M4 muscarinic receptor (Homo sapiens, UniProt P08173).
25 to 100%
